Test system: SK-MEL-2 melanoma
Assay: NCI-60 one-dose screen, 48 h
Conditions: 10 µM unless noted
About 83,000 compounds went through this panel and 20% of them were active in at least one assay; those are over-represented in the sample as a whole. The source made the active and inactive calls. How the source made its calls: active means growth percent below 10; inactive means the rest.
Labels: 1 (yes) (active), 0 (no) (inactive)

Cc1cc2nc3ccc(N=Nc4ccc(N(C)C)cc4)cc3n(-c3ccccc3)c-2cc1=N: 1 (yes)
O=C(/C=C/c1sc(Cl)nc1Cl)c1ccccc1: 0 (no)
O=c1c2cc(F)cc(Cl)c2sc2c(NCCCNCCO)nc3ccccc3c12: 0 (no)
COc1cccc2nc3n(c12)C(c1c(F)cccc1F)SC3 (centres undefined): 0 (no)
O=c1c2cc(F)ccc2sc2c(NCCN3CCOCC3)nc3ccccc3c12: 0 (no)
COc1cccc(OC)c1C(=O)N[C@@H]1C(=O)N2[C@@H]1SC(C)(C)[C@@H]2C(=O)O: 0 (no)
CCOC(=O)NCCc1ccccc1: 0 (no)
COc1ccc(OC)c(/C=C/c2nnc(Nc3ccccc3)o2)c1: 0 (no)
Oc1c(I)cc(I)cc1CNCCCN(Cc1ccccn1)Cc1ccccn1: 1 (yes)
